- Test system: Enterococcus faecalis KCTC 3511
- protocol summary: MIC in multidrug-resistant bacteria, modified microdilution method
- Assay type: cell-based
- experimental parameters: Table 14
Where a SMILES comes first, the peptide text is derived from it. [ ]: non-standard residue; d: D form. Gly(N(CH2)2(3-indolyl)) = O=C(O)CNCCc1c[nH]c2ccccc12; Nspe = C[C@H](NCC(=O)O)c1ccccc1; Nlys = NCCCCNCC(=O)O
recorded endpoint: MIC Enterococcus faecalis KCTC 3511 (µM)

[[record]]
compound = "C[C@@H](c1ccccc1)N(CC(N)=O)C(=O)CN(CCCCN)C(=O)CN(CCCCN)C(=O)CN(C(=O)CN(C(=O)CN(CCCCN)C(=O)CN(C(=O)CN(C(=O)CN(CCCCN)C(=O)CN(CCc1c[nH]c2ccccc12)C(=O)CN(CCc1c[nH]c2ccccc12)C(=O)CNCCCCN)[C@@H](C)c1ccccc1)[C@@H](C)c1ccccc1)[C@@H](C)c1ccccc1)[C@@H](C)c1ccccc1"
result_modifier = "="
value_observed = 6.3

[[record]]
compound = "C[C@@H](c1ccccc1)N(CC(N)=O)C(=O)CN(C(=O)CN(CCCCN)C(=O)CN(C(=O)CN(C(=O)CN(CCCCN)C(=O)CN(C(=O)CN(C(=O)CN(CCCCN)C(=O)CN(C(=O)CN(C(=O)CNCCCCN)[C@@H](C)c1ccccc1)[C@@H](C)c1ccccc1)[C@@H](C)c1ccccc1)[C@@H](C)c1ccccc1)[C@@H](C)c1ccccc1)[C@@H](C)c1ccccc1)[C@@H](C)c1ccccc1 [Peptoid 1, reference compound] (H-[Nlys][Nspe][Nspe][Nlys][Nspe][Nspe][Nlys][Nspe][Nspe][Nlys][Nspe][Nspe]-NH2)"
result_modifier = "="
value_observed = 0.8

[[record]]
compound = "C[C@@H](c1ccccc1)N(CC(N)=O)C(=O)CN(C(=O)CN(CCCCN)C(=O)CN(C(=O)CN(C(=O)CN(CCCCN)C(=O)CN(C(=O)CN(C(=O)CN(CCCCN)C(=O)CN(CCc1c[nH]c2ccccc12)C(=O)CN(CCc1c[nH]c2ccccc12)C(=O)CNCCCCN)[C@@H](C)c1ccccc1)[C@@H](C)c1ccccc1)[C@@H](C)c1ccccc1)[C@@H](C)c1ccccc1)[C@@H](C)c1ccccc1"
result_modifier = "="
value_observed = 1.6

[[record]]
compound = "C[C@@H](c1ccccc1)N(CC(=O)N(CCCCN)CC(=O)N(CC(=O)N(CC(=O)N(CCCCN)CC(=O)N(CC(=O)N(CC(=O)N(CCCCN)CC(=O)N(CCc1c[nH]c2ccccc12)CC(=O)N(CCc1c[nH]c2ccccc12)CC(N)=O)[C@@H](C)c1ccccc1)[C@@H](C)c1ccccc1)[C@@H](C)c1ccccc1)[C@@H](C)c1ccccc1)C(=O)CN(C(=O)CNCCCCN)[C@@H](C)c1ccccc1 [Peptoid 11] (H-[Nlys][Nspe][Nspe][Nlys][Nspe][Nspe][Nlys][Nspe][Nspe][Nlys][Gly(N(CH2)2(3-indolyl))][Gly(N(CH2)2(3-indolyl))]-NH2)"
result_modifier = "<"
value_observed = 0.8

[[record]]
compound = "C[C@@H](c1ccccc1)N(CC(=O)N(CCCCN)CC(=O)N(CCc1c[nH]c2ccccc12)CC(=O)N(CCc1c[nH]c2ccccc12)CC(N)=O)C(=O)CN(CCCCN)C(=O)CN(CCCCN)C(=O)CN(C(=O)CN(C(=O)CN(CCCCN)C(=O)CN(C(=O)CN(C(=O)CNCCCCN)[C@@H](C)c1ccccc1)[C@@H](C)c1ccccc1)[C@@H](C)c1ccccc1)[C@@H](C)c1ccccc1 [Peptoid 29] (H-[Nlys][Nspe][Nspe][Nlys][Nspe][Nspe][Nlys][Nlys][Nspe][Nlys][Gly(N(CH2)2(3-indolyl))][Gly(N(CH2)2(3-indolyl))]-NH2)"
result_modifier = "="
value_observed = 3.1


====

- System: red blood cells
- protocol summary: Hemolysis assay
- Assay type: cell-based, Sprague-Dawley mouse
Where a SMILES comes first, the peptide text is derived from it. [ ]: non-standard residue; d: D form. Nspe = C[C@H](NCC(=O)O)c1ccccc1; Nphe = O=C(O)CNCc1ccccc1; Nlys = NCCCCNCC(=O)O
recorded endpoint: HC50 (µM)

[[record]]
molecule = "C[C@@H](c1ccccc1)N(CC(=O)N(CCCCN)CC(=O)N(CC(=O)N(CC(=O)N(CCCCN)CC(=O)N(CC(=O)N(CC(=O)N(CCCCN)CC(=O)N(CC(=O)N(CC(N)=O)Cc1ccccc1)Cc1ccccc1)[C@@H](C)c1ccccc1)[C@@H](C)c1ccccc1)[C@@H](C)c1ccccc1)[C@@H](C)c1ccccc1)C(=O)CN(C(=O)CNCCCCN)[C@@H](C)c1ccccc1 [Peptoid 44] (H-[Nlys][Nspe][Nspe][Nlys][Nspe][Nspe][Nlys][Nspe][Nspe][Nlys][Nphe][Nphe]-NH2)"
value_observed = 28.6

[[record]]
molecule = "C[C@@H](c1ccccc1)N(CC(N)=O)C(=O)CN(C(=O)CN(CCCCN)C(=O)CN(C(=O)CN(C(=O)CN(CCCCN)C(=O)CN(CCc1c[nH]c2ccccc12)C(=O)CN(CCc1c[nH]c2ccccc12)C(=O)CN(CCCCN)C(=O)CN(CCc1c[nH]c2ccccc12)C(=O)CN(CCc1c[nH]c2ccccc12)C(=O)CNCCCCN)[C@@H](C)c1ccccc1)[C@@H](C)c1ccccc1)[C@@H](C)c1ccccc1"
value_observed = 64.9


====

Recorded measurements of Hmax (100 μM), one per entry
- Test system: red blood cells
- protocol summary: Hemolysis assay
- Format: cell-based, Sprague-Dawley mouse
recorded endpoint: Hmax (100 μM) (%)

[[record]]
smiles_code = "C[C@@H](c1ccccc1)N(CC(N)=O)C(=O)CN(C(=O)CN(CCCCN)C(=O)CN(C(=O)CN(C(=O)CN(CCCCN)C(=O)CN(C(=O)CN(C(=O)CN(CCCCN)C(=O)CN(C(=O)CN(C(=O)CN(CCCCN)C(=O)CN(CCc1c[nH]c2ccccc12)C(=O)CNCCc1c[nH]c2ccccc12)[C@@H](C)c1ccccc1)[C@@H](C)c1ccccc1)[C@@H](C)c1ccccc1)[C@@H](C)c1ccccc1)[C@@H](C)c1ccccc1)[C@@H](C)c1ccccc1)[C@@H](C)c1ccccc1"
measured_on = "red blood cells"
recorded_endpoint = "Hmax (100 μM)"
readout_unit = "%"
value_observed = 101.6

[[record]]
smiles_code = "C[C@@H](c1ccccc1)N(CC(N)=O)C(=O)CN(C(=O)CN(CCCCN)C(=O)CN(C(=O)CN(C(=O)CN(CCCCN)C(=O)CN(CCc1c[nH]c2ccccc12)C(=O)CN(C(=O)CN(CCCCN)C(=O)CN(C(=O)CN(C(=O)CNCCCCN)[C@@H](C)c1ccccc1)[C@@H](C)c1ccccc1)[C@@H](C)c1ccccc1)[C@@H](C)c1ccccc1)[C@@H](C)c1ccccc1)[C@@H](C)c1ccccc1"
measured_on = "red blood cells"
recorded_endpoint = "Hmax (100 μM)"
readout_unit = "%"
value_observed = 106.4

[[record]]
smiles_code = "C[C@@H](c1ccccc1)N(CC(N)=O)C(=O)CN(C(=O)CN(CCCCN)C(=O)CN(C(=O)CN(C(=O)CN(CCCCN)C(=O)CN(C(=O)CN(C(=O)CN(CCCCN)C(=O)CN(C(=O)CN(CCCCN)C(=O)CN(CCCCN)C(=O)CN(CCc1c[nH]c2ccccc12)C(=O)CNCCc1c[nH]c2ccccc12)[C@@H](C)c1ccccc1)[C@@H](C)c1ccccc1)[C@@H](C)c1ccccc1)[C@@H](C)c1ccccc1)[C@@H](C)c1ccccc1)[C@@H](C)c1ccccc1"
measured_on = "red blood cells"
recorded_endpoint = "Hmax (100 μM)"
readout_unit = "%"
value_observed = 89.1


====

- protocol summary: in vitro
- experimental parameters: LC50 MRC-5, 24 hours incubation; concentration that causes 50% cell lethality
Where a SMILES comes first, the peptide text is derived from it. [ ]: non-standard residue; d: D form. Nspe = C[C@H](NCC(=O)O)c1ccccc1; Nlys = NCCCCNCC(=O)O
recorded endpoint: CC50 at 24 h (µM)

[[record]]
molecule = "C[C@@H](c1ccccc1)N(CC(N)=O)C(=O)CN(C(=O)CN(CCCCN)C(=O)CN(C(=O)CN(C(=O)CN(CCCCN)C(=O)CN(C(=O)CN(C(=O)CN(CCCCN)C(=O)CN(C(=O)CN(C(=O)CNCCCCN)[C@@H](C)c1ccccc1)[C@@H](C)c1ccccc1)[C@@H](C)c1ccccc1)[C@@H](C)c1ccccc1)[C@@H](C)c1ccccc1)[C@@H](C)c1ccccc1)[C@@H](C)c1ccccc1 [Peptoid 1, reference compound] (H-[Nlys][Nspe][Nspe][Nlys][Nspe][Nspe][Nlys][Nspe][Nspe][Nlys][Nspe][Nspe]-NH2)"
value_observed = 8.1


====

- Test system: red blood cells
- protocol summary: Hemolysis assay
- Assay type: cell-based, Sprague-Dawley mouse
recorded endpoint: HC10 (µM)

[[record]]
compound = "C[C@@H](c1ccccc1)N(CC(N)=O)C(=O)CN(C(=O)CN(CCCCN)C(=O)CN(C(=O)CN(C(=O)CN(CCCCN)C(=O)CN(CCc1c[nH]c2ccccc12)C(=O)CN(CCc1c[nH]c2ccccc12)C(=O)CN(CCCCN)C(=O)CN(C(=O)CN(C(=O)CNCCCCN)[C@@H](C)c1ccccc1)[C@@H](C)c1ccccc1)[C@@H](C)c1ccccc1)[C@@H](C)c1ccccc1)[C@@H](C)c1ccccc1 [Peptoid 13]"
recorded_endpoint = "HC10"
readout_unit = "µM"
value_observed = 20.2

[[record]]
compound = "C[C@@H](c1ccccc1)N(CC(N)=O)C(=O)CN(C(=O)CN(CCCCN)C(=O)CN(C(=O)CN(C(=O)CN(CCCCN)C(=O)CN(CCc1c[nH]c2ccccc12)C(=O)CN(C(=O)CN(CCCCN)C(=O)CN(C(=O)CN(C(=O)CNCCCCN)[C@@H](C)c1ccccc1)[C@@H](C)c1ccccc1)[C@@H](C)c1ccccc1)[C@@H](C)c1ccccc1)[C@@H](C)c1ccccc1)[C@@H](C)c1ccccc1 [Peptoid 9]"
recorded_endpoint = "HC10"
readout_unit = "µM"
value_observed = 10.6

